biological target: UniProt:O15552; experiment: Ca-Flux functional assay: determination of agonist/positive allosteric modulator (PAM) activity; settings: CHO-K1 Gα16 cells stably expressing human GPR43; compound added with EC20 sodium acetate; intracellular Ca2+ by FLIPR; does not distinguish agonist from PAM
Sequence (O15552 whole entry): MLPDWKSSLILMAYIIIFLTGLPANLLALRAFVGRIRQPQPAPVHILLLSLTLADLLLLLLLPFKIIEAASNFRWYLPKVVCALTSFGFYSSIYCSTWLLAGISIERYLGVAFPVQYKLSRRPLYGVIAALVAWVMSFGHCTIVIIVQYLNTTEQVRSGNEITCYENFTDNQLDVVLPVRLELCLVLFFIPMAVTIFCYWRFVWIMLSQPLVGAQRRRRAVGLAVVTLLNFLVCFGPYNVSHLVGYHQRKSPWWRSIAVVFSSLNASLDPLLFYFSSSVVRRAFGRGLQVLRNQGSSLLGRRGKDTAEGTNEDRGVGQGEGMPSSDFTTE
Recorded log10(EC50) values for a group of compounds are listed next.
Heads up: the numbers are on a log10 scale; they represent EC50 in nM.

Please review the entries below; each comes with its answer.
compound | value
Cc1nc(N2CCOC3(CC3)C2)c2[nH]c(N)c(S(=O)(=O)c3ccccc3F)c2n1 [Example 208] | 0.48
CSc1nc(N2CCOC(C)C2)c2[nH]c(N)c(S(=O)(=O)c3ccccc3F)c2n1 (stereo not drawn) [Example 269] | 0.95
Cc1nc(N2CCOC(CF)C2)c2[nH]c(N)c(S(=O)(=O)c3ccccc3F)c2n1 (stereo not drawn) [Example 266] | 0.48
Nc1[nH]c2c(N3CCCOCC3)ncnc2c1S(=O)(=O)c1ccccc1 [Example 82] | 3.06

Query :: Which log10(EC50) value belongs to Nc1[nH]c2c(OC3CCCC3)ncnc2c1S(=O)(=O)c1ccccc1 [Example 202] ?
Result :: 1.70

Query :: Which value of log10(EC50) has been reported for Nc1[nH]c2c(N3CCCC3)ncnc2c1S(=O)(=O)c1ccccc1 [Example 31] in the records?
Result :: 2.86

Query :: Suppose we examine the compound Nc1[nH]c2c(N3CCCC4(COC4)C3)ncnc2c1S(=O)(=O)c1ccccc1 [Example 150] ; what log10(EC50) value has been reported?
Result :: 2.97

Query :: For Cc1nc(OCC(C)C)c2[nH]c(N)c(S(=O)(=O)c3ccccc3)c2n1 [Example 251] , what is its reported log10(EC50)?
Result :: 1.69

Query :: Recorded log10(EC50) of Cc1nc(OC(C)C2CCC2)c2[nH]c(N)c(S(=O)(=O)c3ccccc3)c2n1 (stereo not drawn) [Example 256] , please.
Result :: 1.26

Query :: Reported log10(EC50), compound Nc1[nH]c2c(C3=CCCCC3)ncnc2c1S(=O)(=O)c1ccc(F)c(F)c1 [Example 49] : ____
Result :: 2.05

Query :: I'd like to know its log10(EC50). The compound in question is Cc1ccc(S(=O)(=O)c2c(N)[nH]c3c(N4CCOC(C)C4)ncnc23)c(F)c1 (stereo not drawn) [Example 146]
Result :: 0.95

Query :: Given the entry CC1CCN(c2ncnc3c(S(=O)(=O)c4ccccc4)c(N)[nH]c23)CC1 [Example 59] , report its measured log10(EC50).
Result :: 1.76

Query :: Quick check: log10(EC50) of Cc1nc(N2CCCC(C)C2)c2[nH]c(N)c(S(=O)(=O)c3cccc(F)c3)c2n1 (stereo not drawn) [Example 198] ?
Result :: 1.49

Query :: log10(EC50) for Nc1[nH]c2c(-n3cccn3)ncnc2c1S(=O)(=O)c1ccccc1 [Example 128] ?
Result :: 2.90

Query :: Which value of log10(EC50) has been reported for CCNc1ncnc2c(S(=O)(=O)c3ccccc3)c(N)[nH]c12 [Example 65] in the records?
Result :: 3.83
